# test_name: Solubility of compound in phosphate buffer at pH 7.4 incubated for 24 hrs at 25 degree C
# Assay type: physicochemical
outcome_measure: solubility at 24 h

Value of solubility at 24 h reported for the compound COc1cc(NC2CN(CCCF)C2)ccc1[C@@H]1c2ccc3[nH]ncc3c2C[C@@H](C)N1CC1(F)CC1 is > 900 µM

---

# Emax per entry
# study_target: Estrogen receptor (Homo sapiens) (UniProt P03372)
# Sequence (P03372 whole entry): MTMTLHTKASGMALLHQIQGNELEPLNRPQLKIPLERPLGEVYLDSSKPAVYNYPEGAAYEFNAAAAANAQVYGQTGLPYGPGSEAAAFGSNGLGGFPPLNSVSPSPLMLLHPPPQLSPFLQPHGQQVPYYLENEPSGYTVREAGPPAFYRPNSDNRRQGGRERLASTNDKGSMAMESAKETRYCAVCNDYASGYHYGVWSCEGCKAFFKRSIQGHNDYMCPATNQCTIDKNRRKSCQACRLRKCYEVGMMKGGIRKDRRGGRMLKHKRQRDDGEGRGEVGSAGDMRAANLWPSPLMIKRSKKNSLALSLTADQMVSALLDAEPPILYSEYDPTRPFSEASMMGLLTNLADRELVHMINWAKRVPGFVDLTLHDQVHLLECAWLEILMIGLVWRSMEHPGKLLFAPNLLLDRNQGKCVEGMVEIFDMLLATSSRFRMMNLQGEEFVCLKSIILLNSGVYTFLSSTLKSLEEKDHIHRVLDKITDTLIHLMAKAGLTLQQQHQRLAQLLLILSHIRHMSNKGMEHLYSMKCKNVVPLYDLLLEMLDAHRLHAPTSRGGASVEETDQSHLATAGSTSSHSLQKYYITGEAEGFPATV
# test_name: Induction of ERalpha degradation in human MCF7 cells assessed as maximum degradation incubated for 18 to 24 hrs by Alexa fluor 488/Hoechst staining based immunofluorescence imaging analysis relative to fulvestrant
# Format: cell-based
# experimental_setup: time lower […], time upper […]
Response body: numeric value in %, unit text excluded.

// below: answered compounds
>>> df
                              smiles_string                              study_target  outcome_measure  number
0  C[C@@H]1Cc2c(ccc3[nH]ncc23)[C@@H](c2ccc(N[C@H]3CCN(CCCF)C3)cn2)N1CC(F)(F)F  Estrogen receptor (Homo sapiens) (UniProt P03372)             Emax      99
1  C[C@@H]1Cc2c(ccc3[nH]ncc23)[C@@H](c2ccc(NC3CN(CCCF)C3)cn2)N1CC(F)(F)CO  Estrogen receptor (Homo sapiens) (UniProt P03372)             Emax      99
2  CC1(C)Cc2c(ccc3[nH]ncc23)[C@@H](c2ccc(NC3CN(CCCF)C3)cn2)N1CC(F)F  Estrogen receptor (Homo sapiens) (UniProt P03372)             Emax      98
3  COc1cc(OCCN2CC(CF)C2)ccc1[C@@H]1c2ccc3[nH]ncc3c2C[C@@H](C)N1CC(C)(C)F  Estrogen receptor (Homo sapiens) (UniProt P03372)             Emax      95
4  C[C@@H]1Cc2c(ccc3[nH]ncc23)[C@@H](c2ccc(NC3(C)CN(CCCF)C3)cn2)N1CC(F)(F)F  Estrogen receptor (Homo sapiens) (UniProt P03372)             Emax      82
5  COc1cc(NC2CN(CCCF)C2)ccc1[C@@H]1c2ccc3[nH]ncc3c2C[C@@H](C)N1CC(F)(F)CO  Estrogen receptor (Homo sapiens) (UniProt P03372)             Emax      98

For the compound COc1cc(OCCN2CC(CF)C2)ccc1[C@@H]1c2ccc3[nH]ncc3c2C[C@@H](C)N1CC(C)C , the measured Emax on Estrogen receptor (Homo sapiens) (UniProt P03372) was 98

For the compound C[C@@H]1Cc2c(ccc3[nH]ncc23)[C@@H](c2ccc(NC3CN(CCCF)C3)cn2)N1CC(F)(F)F , the measured Emax on Estrogen receptor (Homo sapiens) (UniProt P03372) was 99
